Origin of values: patent US11851391B2

# Test system: murine red blood cells (mRBCs)
# ASSAY SETUP: mouse, 60 min, 31.3 μg/mL
# Description: Thus, the hemolytic activity for these bishydrazones was investigated against murine red blood cells (mRBCs). Murine red blood cells (mRBCs) were prepared by suspending 1 mL of murine blood in 3 mL of PBS prior to centrifugation at 1,000 rpm for 5 min. […] The percentage of hemolysis was calculated using the following equation: % hemolysis=[(absorbance of sample)−(absorbance of blank)]×100/(absorbance of positive control).
Reported Percentage of hemolysis (±SDEV) values are given for each entry in this list.
The answer is to be given in %; state only the numeric part.

- COMPOUND: "C(=N\\Nc1ccccc1)/c1ccc(-c2ccc(/C=N/Nc3ccccc3)cc2)cc1"
  Percentage of hemolysis (±SDEV) (%): 10.8

QUERY: Name the reported Percentage of hemolysis (±SDEV) value associated with the compound Fc1cccc(N/N=C/c2ccc(-c3cccc(/C=N/Nc4cccc(F)c4)c3)cc2)c1 [Compound 12a]
RESULT: 32.6

QUERY: Name the reported Percentage of hemolysis (±SDEV) value associated with the compound Fc1cccc(N/N=C/c2ccc(-c3ccc(/C=N/Nc4cccc(F)c4)cc3)cc2)c1 [Compound 12b]
RESULT: 10.3

QUERY: Name the reported Percentage of hemolysis (±SDEV) value associated with the compound COc1ccc(N/N=C/c2ccc(-c3cccc(/C=N/Nc4ccc(OC)cc4)c3)cc2)cc1 [Compound 15a]
RESULT: 9.6
